- target of assay: T1, SIPA1L2, Q9P2F8
- T1 sequence (Q9P2F8 945-1036, limits assumed, looked up): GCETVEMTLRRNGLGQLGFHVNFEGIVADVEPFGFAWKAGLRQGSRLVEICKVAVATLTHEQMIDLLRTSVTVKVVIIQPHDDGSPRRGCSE
- experimental details: holdup assay
- Set-up: key: below the threshold = too weak to quantify, mostly under pKd 3.1 to 4
- run parameters: plain residues with an end cap or a label only (N-terminal biotin on a linker: ado-ado)

[
  {
    "binder": "AHGSTRDQSI [KCNB1, Q14721]",
    "pKd": 3.58
  },
  {
    "binder": "THHRKIHTRV [ZNF599, Q96NL3]",
    "pKd": "below the threshold"
  },
  {
    "binder": "GSQSQVETEA [FKBP4, Q02790]",
    "pKd": "below the threshold"
  },
  {
    "binder": "MQILSKPEFI [NPSR1, Q6W5P4]",
    "pKd": "below the threshold"
  }
]
